The molecules listed here are annotated with their Emax.
- target.of.assay: M3 muscarinic receptor (Homo sapiens, UniProt P20309)
- Construct: expressed in transfected cells; host or cells: CHO (M3-CHO)
- Sequence (P20309 whole entry): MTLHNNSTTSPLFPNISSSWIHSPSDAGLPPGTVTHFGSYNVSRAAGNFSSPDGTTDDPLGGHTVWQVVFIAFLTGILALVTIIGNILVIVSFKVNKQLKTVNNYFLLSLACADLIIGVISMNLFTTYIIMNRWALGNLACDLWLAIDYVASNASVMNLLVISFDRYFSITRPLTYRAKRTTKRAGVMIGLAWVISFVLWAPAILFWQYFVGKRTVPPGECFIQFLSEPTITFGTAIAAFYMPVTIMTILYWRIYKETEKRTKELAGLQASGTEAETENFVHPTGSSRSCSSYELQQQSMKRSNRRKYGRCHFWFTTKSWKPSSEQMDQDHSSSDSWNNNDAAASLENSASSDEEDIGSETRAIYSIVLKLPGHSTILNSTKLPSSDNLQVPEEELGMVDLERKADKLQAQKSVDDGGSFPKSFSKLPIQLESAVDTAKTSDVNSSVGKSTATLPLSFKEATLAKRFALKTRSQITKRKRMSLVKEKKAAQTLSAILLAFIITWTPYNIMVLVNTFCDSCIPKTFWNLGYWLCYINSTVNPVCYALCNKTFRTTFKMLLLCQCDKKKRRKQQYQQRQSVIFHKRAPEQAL
- experiment.notes: Functional mobilization of intracellular calcium (FLIPR), M3-CHO cells
- Assay type: cell-based
- condition.notes: 100% efficacy = maximum response obtained with the Carbachol control

1. CC(=O)N1CC[C@@H]2CC3(CCN(C4CCCCC4)CC3)c3ccccc3[C@@H]21 [Compound 27]: < 25%
2. CCOC(=O)N1CCC(N2CCC3(CC2)C[C@H]2CC(=O)N(CC(=O)O)[C@H]2c2ccccc23)CC1 [Compound 13]: < 25%

Looking up O=C1C[C@@H]2CC3(CCN(C4CC5CCC(C5)C4)CC3)c3ccccc3[C@@H]2N1 (stereo partly drawn) [Compound 5] , I see its Emax listed as < 25%
